Assay: melting temperature; fluorescence melt of hairpins on a sequencing array, two-state fit, raised by 9.35 °C to match UV melts
Conditions: sodium 0.088 M
# binarize Tm: threshold 50 °C inclusive, high side YES, low side NO

GGCTGAGAAATCAGCC ((((((....)))))); YES
GCGGGCCCGAAAGGGCGC (((..(((....)))))); YES
GACCGCGAAAGCGAAGTC ((((((....)))..))); NO
GCTAGGGGAAACCCTAGC (((((((....))))))); YES
GACAGACGAAAGTCGTC (((.(((....)))))); YES
GGCGGTGGAAACACTGCC (((.(((....))).))); YES
GGAGCTGCGAAAGCATCC (((..(((....)))))); NO
GCAGGCGAAAGCCATGC ((((((....))).))); YES
GATCAACGATTGATC ((((((...)))))); NO
GGAATCGAAAGATCCTCC ((((((....)))..))); NO
GTACTGTCGAAAGACTAC (((..(((....)))))); NO
GGTTTTACGAAAGTAACC (((..(((....)))))); NO
GACCGAGCGAAAGCTGTC (((..(((....)))))); NO
GGCGTTGGAAACGACGTC (.(((.(....).))).); YES
GTGATCGCGAAAGCGCAC (((..(((....)))))); NO
GTTCAGCGAAAGCTAAAC (((.(((....))).))); NO
GGCTCAGGAAACTGAACC ((.((((....)))).)); NO
GTTGCGGGAAACTGCGAC ((.((.(....).)).)); NO
GGCCGGCGAAAGCCTGCC (((.(((....))).))); YES
GGACCGGGAAACCAGTCC ((((.((....)).)))); NO
GCATAGCGAAAGCAGTGC (((..((....))..))); YES
GCCCGGCGAAAGCTGTGC ((.(.((....)).).)); NO
GTAGGACGAAAGTCTTAC (((.(((....))).))); NO
GCCCCGCGAAAGCTGCGC ((.(.((....)).).)); NO

---

Experiment: folding enthalpy; higher = less favourable; fluorescence melt of hairpins on a sequencing array, two-state fit
Details: sodium 0.088 M
Note to self: class = bucket of folding enthalpy, per c1: < -30 kcal/mol; c2: ≥ -30 kcal/mol and < -20 kcal/mol; c3: ≥ -20 kcal/mol

GCTTCCACGAAAGTGAGC (((..(((....)))))); c3
GCGGAAGGCCGC ((((....)))); c2
GATCCTAGCAGGATC ((((((...)))))); c1
GCGACCGATCGC ((((....)))); c2
GTTCACGAAAGTGTTAAC ((((((....)))..))); c3
GGCGGCGAAAGCCACGCC ((((((....)))..))); c3
GGGATAGGAAACTACCCC (((.(((....))).))); c2
GAGCAGGGAAACCCGCTC ((((.((....)).)))); c1
GATCCCCTGGGGATC ((((((...)))))); c1
GATCAACATTTGATC ((((((...)))))); c1
GCCAACGAAAGTTCTGGC ((((((....)))..))); c2

---

Assay: melting temperature; fluorescence melt of hairpins on a sequencing array, two-state fit, raised by 9.35 °C to match UV melts
Settings: sodium 0.088 M
REPORTED METRIC: Tm

GTCGAGCGAAAGCTTGAC (((.(((....))).))); 63.9 °C
GGGGTTCGAAAGAACCC (((.(((....)))))); 69.3 °C
GAAATGCGAAAGCATTC (((.(((....)))))); 45.6 °C
CGCGTCGGAAACGAGGCG (((.(((....))).))); 60.9 °C
GTATTAGGAAACCAATAC (((((.(....).))))); 25.9 °C
GTTTGTCGAAAGACCAAC (((.(((....))).))); 37.9 °C
CCGGAGAAATCCGG (((((....))))); 56.5 °C
GATCTGTTTTCAGATC ((((((....)))))); 51.4 °C
GCGGGGGGAAACTCCCGC (((((.(....).))))); 68.4 °C
GCTAAGCGAAAGCTAAGC (((.(((....))).))); 51.5 °C
GGCAGCGGAAACGCCACC ((..(((....)))..)); 36.6 °C
GGGCCCGAAAGGGCTCCC ((((((....)))..))); 59.7 °C
GCGTACGAAAGTAGCCGC ((((((....)))..))); 51.2 °C
GACACAGGAAACTACGTC (((..((....))..))); 28.8 °C
GGATTTCGAAAGAACTCC (((.(((....))).))); 38 °C
GGCGGTGGAAACGTCGCC ((((..(....)..)))); 53.9 °C
GATCCAAGCTGGATC ((((((...)))))); 50.5 °C
CGAGCGGAAACGCTTCG ((((((....))).))); 50.6 °C
GATCTTCACCAAGATC ((((((....)))))); 41.9 °C
GATTTTGGAAACAAAACC (.(((((....))))).); 29.6 °C
GGTGATGGAAACGTCACC (((((.(....).))))); 53.5 °C
GCTAACGCGAAAGCGAGC (((..(((....)))))); 45.2 °C
GTAGGCGAAAGCCTTAC ((((((....))).))); 44.9 °C
GATCATCGAAATGATC ((((((....)))))); 44.2 °C
GATCGGACAGCCGATC ((((((....)))))); 52.4 °C

---

# folding enthalpy annotations
Assay: folding enthalpy; higher = less favourable; fluorescence melt of hairpins on a sequencing array, two-state fit
Conditions: sodium 0.088 M
REPORTED METRIC: folding enthalpy (kcal/mol)

GATTCCGGAAACGGAACC (.(((((....))))).); -13.6
GTTTTCGAAAGAAAAC ((((((....)))))); -29.2
GTCAGGGCGAAAGCCGAC (((..(((....)))))); -14.7
GGCCTGGGAAACCAGACC ((.((((....)))).)); -30.1
GTCCAACGAAAGTTGAC (((.(((....)))))); -14.7
GACTGAGGAAACTCAGCC (.(((((....))))).); -16.9
GCATGCGAAAGCACTGC ((((((....))).))); -22.3
GATCCGCTGTCGGATC ((((((....)))))); -42.1
GTTCAGCGAAAGCTAAAC (((.(((....))).))); -21.6
GATCACCTTCGTGATC ((((((....)))))); -48.5
GACTAACCGAAAGGTGTC (((..(((....)))))); -18.3
GTGTACGAAAGTACGCAC ((((((....)))..))); -14.5
GATCAAAGCGTTGATC ((((((....)))))); -31.6
GTACGACGAAAGTCTTAC (((.(((....))).))); -26.1
GGCAAAGGAAACCTTGCC (((((.(....).))))); -31.5
GCGGGACCCCGC ((((....)))); -26
GCGGAGCGAAAGCTTAGC ((..(((....)))..)); -14.1
GATGCTGGAAACAACATC ((((.((....)).)))); -31.4
GGAACGACGAAAGTCTCC (((..(((....)))))); -10.9
GTAAGCGAAAGCTTATAC ((((((....)))..))); -12.2
CGCCTACGGAAACGTGCG (((..(((....)))))); -23.2
GGTCGGGGAAACCTGGCC ((.(.((....)).).)); -28.7
GATCCTGCGCAGGATC ((((((....)))))); -53
GTCGAGTCGAAAGACGAC (((..(((....)))))); -10.7
TAGCAGAAATGCTA (((((....))))); -14

---

Test: melting temperature; fluorescence melt of hairpins on a sequencing array, two-state fit, raised by 9.35 °C to match UV melts
Conditions: sodium 0.088 M
Criterion: Tm strictly less than 40 °C. Met: rule met. Not met: rule not met.

GCGAACGAAAGTTTCCGC ((((((....)))..))); rule met
GCTTTGCGAAAGCTAAGC ((((.((....)).)))); rule not met
GCCGGCGAAAGCCGCGGC ((((((....)))..))); rule not met
GTAGCTGGAAACAGTTGC (.(.(((....))).).); rule met
GATCGACCATTCGATC ((((((....)))))); rule not met
GTCGACGAAAGTCGAGAC ((((((....)))..))); rule not met
GCAGGGCGAAAGCCTTGC (((.(((....))).))); rule not met
GATCGGTGCGCCGATC ((((((....)))))); rule not met
GCCAACGGAAACACTGGC ((((..(....)..)))); rule met
GCACAGCGAAAGCTTAGC ((..(((....)))..)); rule met
